Just for reference, patent US9051299B2 is where these values come from.

target: T-type calcium channel A1i (alpha-1I, CaV 3.3) (Homo sapiens); construct: expressed in transfected cells; host or cells: HEK 293 cells, tetracycline-inducible expression (Zeocin/Blasticidin selection); assay: FLIPR Ca2+ Flux Assay, depolarized state; type: cell-based; settings: measure of the ability to inhibit T-type calcium channel
Sequence (Q9P0X4 whole entry): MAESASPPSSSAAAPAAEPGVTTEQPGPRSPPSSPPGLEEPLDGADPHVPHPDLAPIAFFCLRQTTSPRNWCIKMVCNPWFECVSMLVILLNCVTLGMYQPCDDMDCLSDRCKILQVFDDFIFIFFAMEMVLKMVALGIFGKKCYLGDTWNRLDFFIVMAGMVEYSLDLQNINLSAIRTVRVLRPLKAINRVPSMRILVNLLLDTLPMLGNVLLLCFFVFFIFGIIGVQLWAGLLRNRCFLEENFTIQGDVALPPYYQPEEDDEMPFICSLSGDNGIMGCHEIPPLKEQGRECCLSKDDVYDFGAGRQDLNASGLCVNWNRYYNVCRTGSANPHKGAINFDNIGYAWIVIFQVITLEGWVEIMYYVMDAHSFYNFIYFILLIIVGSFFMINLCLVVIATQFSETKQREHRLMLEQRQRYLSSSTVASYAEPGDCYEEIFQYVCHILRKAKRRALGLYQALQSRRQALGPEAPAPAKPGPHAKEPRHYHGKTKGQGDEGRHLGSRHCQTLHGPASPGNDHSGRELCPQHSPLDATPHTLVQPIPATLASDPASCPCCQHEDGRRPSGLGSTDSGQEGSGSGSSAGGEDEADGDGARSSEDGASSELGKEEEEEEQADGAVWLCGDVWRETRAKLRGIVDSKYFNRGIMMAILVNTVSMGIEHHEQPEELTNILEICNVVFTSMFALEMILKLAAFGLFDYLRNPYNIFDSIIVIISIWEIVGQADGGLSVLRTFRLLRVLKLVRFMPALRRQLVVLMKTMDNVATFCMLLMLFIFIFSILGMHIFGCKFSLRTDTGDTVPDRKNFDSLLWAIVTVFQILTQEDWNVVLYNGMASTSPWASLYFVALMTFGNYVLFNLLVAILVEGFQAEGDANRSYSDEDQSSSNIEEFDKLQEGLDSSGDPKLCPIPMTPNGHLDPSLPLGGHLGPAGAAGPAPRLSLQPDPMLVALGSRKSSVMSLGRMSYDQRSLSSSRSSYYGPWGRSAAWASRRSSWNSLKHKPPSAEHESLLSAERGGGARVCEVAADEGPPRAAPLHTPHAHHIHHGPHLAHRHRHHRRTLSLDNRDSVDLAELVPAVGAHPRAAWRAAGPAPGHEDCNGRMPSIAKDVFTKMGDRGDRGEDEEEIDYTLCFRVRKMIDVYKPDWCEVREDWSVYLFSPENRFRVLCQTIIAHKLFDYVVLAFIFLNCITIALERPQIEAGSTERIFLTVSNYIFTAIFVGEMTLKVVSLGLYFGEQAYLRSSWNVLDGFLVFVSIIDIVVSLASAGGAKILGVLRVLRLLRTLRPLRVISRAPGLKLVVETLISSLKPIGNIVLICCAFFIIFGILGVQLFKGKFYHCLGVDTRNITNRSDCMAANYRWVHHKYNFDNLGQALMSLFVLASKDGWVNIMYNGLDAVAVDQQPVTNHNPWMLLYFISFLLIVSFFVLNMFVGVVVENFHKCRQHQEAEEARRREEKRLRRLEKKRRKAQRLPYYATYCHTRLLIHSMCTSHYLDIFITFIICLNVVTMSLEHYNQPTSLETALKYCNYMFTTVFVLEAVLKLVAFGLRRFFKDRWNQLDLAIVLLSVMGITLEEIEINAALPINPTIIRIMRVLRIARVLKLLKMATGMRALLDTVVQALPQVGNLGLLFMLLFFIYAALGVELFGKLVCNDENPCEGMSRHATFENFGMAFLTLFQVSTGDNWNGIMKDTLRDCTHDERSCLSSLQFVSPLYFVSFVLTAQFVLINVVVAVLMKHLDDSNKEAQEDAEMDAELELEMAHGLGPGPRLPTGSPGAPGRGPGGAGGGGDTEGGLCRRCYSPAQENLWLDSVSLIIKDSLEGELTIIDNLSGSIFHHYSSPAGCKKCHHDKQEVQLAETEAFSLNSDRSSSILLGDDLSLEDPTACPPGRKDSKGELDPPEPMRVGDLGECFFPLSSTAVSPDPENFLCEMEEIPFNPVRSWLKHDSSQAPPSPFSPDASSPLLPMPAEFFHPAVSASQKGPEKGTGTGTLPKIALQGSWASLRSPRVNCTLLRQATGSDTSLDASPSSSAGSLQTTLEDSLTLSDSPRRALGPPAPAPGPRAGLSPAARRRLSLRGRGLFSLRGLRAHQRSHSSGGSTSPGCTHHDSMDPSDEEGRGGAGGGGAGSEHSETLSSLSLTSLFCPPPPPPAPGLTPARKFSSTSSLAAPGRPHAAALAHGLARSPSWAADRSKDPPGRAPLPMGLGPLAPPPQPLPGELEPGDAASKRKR
pIC50: −log10 of the molar value.

Substance Smiles: COc1ccc(C(=O)C2CCN(Cc3c[nH]c(-c4ccccc4)n3)CC2)cc1
Prefix Operator: <
pIC50: 5.00

Substance Smiles: Cc1cccc(C(=O)C2CCN(Cc3c[nH]c(-c4ccccc4)n3)CC2)c1
Prefix Operator: =
pIC50: 5.34

Substance Smiles: O=C(c1ccc(F)cc1)C1CCN(Cc2c[nH]c(-c3ccccc3)n2)CC1
Prefix Operator: =
pIC50: 5.50

Substance Smiles: O=C(c1ccc2nonc2c1)C1CCN(Cc2c[nH]c(-c3ccccc3)n2)CC1
Prefix Operator: =
pIC50: 5.54

Substance Smiles: Cc1ccc(C(=O)C2CCN(Cc3c[nH]c(-c4ccccc4)n3)CC2)cc1
Prefix Operator: =
pIC50: 5.15

Substance Smiles: O=C(c1ccc(F)c(F)c1)C1CCN(Cc2c[nH]c(-c3ccccc3)n2)CC1
Prefix Operator: =
pIC50: 5.39

Substance Smiles: Cc1nc(CN2CCC(C(=O)c3cccc(C(F)(F)F)c3)CC2)c[nH]1
Prefix Operator: <
pIC50: 5.00

Substance Smiles: CCc1nc(C)c(CN2CCC(C(=O)c3cccc(C(F)(F)F)c3)CC2)[nH]1
Prefix Operator: <
pIC50: 5.00

Substance Smiles: O=C(c1cccc(C(F)(F)F)c1)C1CCN(Cc2cnc(-c3ccccc3)[nH]2)CC1
Prefix Operator: =
pIC50: 6.13

Substance Smiles: O=C(c1cccc(Cl)c1)C1CCN(Cc2c[nH]c(-c3ccccc3)n2)CC1
Prefix Operator: =
pIC50: 5.68
